system: Chordin-like protein 2 (CHRDL2); experiment: compounds binding chordin-like 2 – biochemical, small-molecule microarray, 635 nm fluorescence, primary screen (AID 1126); conditions: fluorescence 635 nm, higher = more signal;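 note: printed compound slides probed with Chrdl2 protein at 4 µg/mL for 1 h at 4 C; score merges 667 nm emission intensity with signal to noise over three replicate slides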
measured_quantity: composite z-score
Kindly provide the number alone.

Below are worked cases with known answers.
1. COCC(=C=CC[C@H](O)c1ccccc1OCCO)C[C@H](O)COCc1ccccc1: 0.0973
2. CCCC=C(CCC)[C@@H](NC(=O)c1ccc(C(F)(F)F)cc1)c1ccc(C(F)(F)F)cc1: -0.748
3. COc1ccc([Si](C)(C)[C@@H]2[C@@H](CC(=O)N(CCO)Cc3ccccc3)O[C@]3(C(=O)N(Cc4ccc(I)cc4)c4ccccc43)[C@H]2C)cc1: 1.36

# composite z-score lookup, item CC1CC/C=C\[C@H]2OC34C=CCN(c5ccc(Cl)cc5)C(=O)[C@H]3N(CCCCCCO)C(=O)[C@]4(C)C2C(=O)O1 (stereo partly drawn)
-0.742

# composite z-score lookup, item [N-]=[N+]=Nc1ccccc1C[C@@]1(C(=O)NCC(O)CO)N=C(c2ccc(OCCCO)cc2)O[C@@H]1c1ccccc1 (stereo partly drawn)
-1.26

# composite z-score lookup, item "CCOC(=O)C1=CC[C@@H](c2ccc(OC)cc2)N(S(=O)(=O)c2ccc(C)cc2)[C@H]1c1ccc(C)cc1"
-0.554

# composite z-score lookup, item "CC(C)NC(=O)[C@@H]1c2ccccc2C(=O)N(Cc2ccc(OC(F)(F)F)cc2)[C@H]1c1ccc(CO)cc1"
0.215

# composite z-score lookup, item "C[C@@H]1ON(c2ccccc2)[C@H](c2ccccc2)[C@H]1C(=O)O"
0.204

---

Catalogue of compounds with associated z-score
test: S. pombe growth modifiers, basal conditions – strain 972, OD600, 24 h, no modulator, primary screen (AID 1090);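 note: basal condition with compound alone and no growth modifier present; test concentration not given here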; conditions: S. pombe 972 growth, higher = more signal, called active from +8 up or from −8 down
Kindly provide the number alone.

1. COc1ccc([Si](C)(C)[C@H]2[C@H](CC(=O)N3Cc4ccccc4C[C@H]3CO)O[C@@]3(C(=O)N(C)c4ccccc43)[C@@H]2C)cc1: -2.06

# z-score lookup, item "CC(C)C(=C=CC[C@H](O)c1ccccc1OCCO)C[C@H](O)COCc1ccccc1"
-1.26

# z-score lookup, item CC(C)(C)OC(=O)CC[C@]1(C(=O)NCC(O)CO)N=C(c2ccc(OCCCO)cc2)O[C@H]1c1ccccc1N=[N+]=[N-] (stereo not given in full)
-0.0793

# z-score lookup, item "O=C(NC1CC1)[C@@H]1c2ccccc2C(=O)N(CC23CC4CC(CC(C4)C2)C3)[C@H]1c1ccc(CO)cc1"
-0.682

# z-score lookup, item CCOc1cc(C(O)C2C=CC3C(=O)N(c4ccccc4)C(=O)C3N2Nc2ccccc2F)ccc1O (stereo not given)
-0.428

# z-score lookup, item "Cc1ccc(S[C@]2(C(=O)NCCCN(C)C)CC(=O)N(C3Cc4ccccc4C3)[C@@H]2c2ccc(CO)cc2I)cc1"
-2.87

# z-score lookup, item CC(C)=CCCC=C(C)C(O)C1C=CC2C(=O)N(c3ccccc3)C(=O)C2N1Nc1ccc(C#N)cc1 (stereo not given)
0.0768

# z-score lookup, item COc1ccc(C(O)C2C=CC3C(=O)N(c4ccccc4)C(=O)C3N2Nc2ccc([N+](=O)[O-])cc2)c2ccccc12 (stereo not given)
1.68

# z-score lookup, item "COCCOC(=O)N1C(=O)[C@@]2(c3cc(C#CCCO)ccc31)[C@H](C(N)=O)[C@H]1C(=O)O[C@H](c3ccccc3)[C@H](c3ccccc3)N1[C@@H]2c1ccccc1OCCO"
1.17

# z-score lookup, item C=CC1c2cc(O)c(OC)cc2CCN1C (stereo not given)
-0.819

# z-score lookup, item NC(=O)N1C(=O)C2C(C1=O)C1C=C(CCCO)C2C(C2CC2)N1Cc1sc2ccccc2c1Cl (stereo not given)
-2.48

# z-score lookup, item "CN(C)C(=O)[C@@]1(Cc2ccccc2CN=[N+]=[N-])COC(c2ccc(OCCCO)cc2)=N1"
-7.06

# z-score lookup, item "C#CCN1[C@@H](Cc2ccccc2)C(=O)O[C@H](Cc2ccccc2)[C@@H]1/C=C/C1CC1"
-0.361

# z-score lookup, item O=C1C2C=CC(C(O)C3CCCCC3)N(n3cnnc3)C2C(=O)N1Cc1ccccc1 (stereo not given)
0.266

# z-score lookup, item "COC(=O)[C@@]1(Cc2ccc(OC)cc2)[C@H]2c3cc(C(=O)N4CCCC4)n(Cc4c(CO)[nH]cc(C)c4=O)c3C[C@H]2CN1C(=O)c1ccccc1"
0.801

# z-score lookup, item C[C@@H]1NC(=O)C([C@@H](C)OCc2ccccc2)NC(=O)[C@@]23C(=O)N[C@@H](Cc4ccccc4)C2[C@H](C)[C@@]2(C)O[C@H]2C3/C=C/C/C=C\CNC1=O (stereo not given in full)
-0.258

---

Catalogue of compounds with associated composite z-score
experiment: binders of probe aHhip on microarray, primary screen, stem cell growth factor project, biochemical, small-molecule microarray, fluorescence 635/667 (AID 1087); details: higher = more signal;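 note: score merges spot fluorescence at 667nm with spot signal to noise ratio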

1) COC(=O)C(CC#Cc1ccc2c(c1)[C@]1(C(=O)N2)[C@H](c2ccc(OCCO)cc2)N2[C@H](c3ccccc3)[C@H](c3ccccc3)OC(=O)[C@H]2[C@@H]1C(=O)N1CCCCCCC1)C(=O)OC: 1.45
2) O=C1C[C@@](C(=O)NC2CC2)(c2ccc([N+](=O)[O-])cc2)[C@@H](c2ccc(CO)cc2)N1C1CCCCC1: 0.164
3) COCCCNC(=O)[C@@]1(CCC(=O)OC(C)(C)C)COC(c2ccc(OCCCO)cc2)=N1: -0.12

--- query ---
# composite z-score lookup, item CCCCC(O)C1C=CC2C(=O)N(c3ccccc3)C(=O)C2N1Nc1ccc([N+](=O)[O-])cc1 (centres undefined)
-0.154

---

system: Neuregulin-1 EGF-like domain; assay: small molecules binding NRG1 EGF domain – biochemical, small-molecule microarray, 635 nm fluorescence, primary screen (AID 1081); settings: higher = more signal;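 note: binding of the protein to compounds printed on small-molecule microarray slides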
measured_quantity: composite z-score
Kindly provide the number alone.

Below are worked cases with known answers.
1) O=C(NCCN1CCOCC1)[C@@H]1c2ccccc2C(=O)N(Cc2ccccc2C(F)(F)F)[C@H]1c1ccc(CO)cc1: -0.755
2) O=C1O[C@H](c2ccccc2)[C@H](c2ccccc2)N2[C@H]1[C@@H](C(=O)O)[C@]1(C(=O)Nc3ccc(C#CCCO)cc31)[C@H]2c1ccc(OCCO)cc1: 1.28
3) CC1CC/C=C\[C@H]2OC34C=CCN(CCN5CCOCC5)C(=O)[C@H]3N(CCCO)C(=O)[C@@H]4C2C(=O)O1 (stereo partly drawn): 1.07
4) CC[C@@H]1C=C(C(=O)O)[C@H](c2ccc(OC)cc2)N1S(=O)(=O)c1ccc(C)cc1: 1.28

# composite z-score lookup, item "Cc1ccc(S[C@]2(C(=O)NC3CC3)CC(=O)N(C(C)C)[C@@H]2c2ccc(CO)cc2I)cc1"
1.07

# composite z-score lookup, item "O=C1O[C@H](Cc2ccccc2)[C@@H]2[C@H]3C=CCCC=C3CN2[C@H]1Cc1ccc(O)cc1"
0.0706

# composite z-score lookup, item CCCCC(O)C1C=CC2C(=O)N(c3ccccc3)C(=O)C2N1Nc1ccccc1 (stereo not drawn)
1.12

# composite z-score lookup, item "CC(C)N1C(=O)c2ccccc2[C@@H](C(=O)NCC(F)(F)F)[C@@H]1c1ccc(CO)cc1"
1.21

---

assay: blockers of DNA damage checkpoint Chk1 activation – imaging, HeLa, hydroxyurea, phospho-Chk1 nuclear intensity, primary screen (AID 1187); settings: hydroxyurea-induced phospho-Chk1 immunofluorescence imaging, higher = more signal; note: test concentration not given here
Note to self: values exactly at 0 are Yes. So z-score at or above 0 is Yes, below is No.

Worked cases, answers included:
1) C=C(COC)/C(=C/C[C@H](OC(C)=O)c1ccccc1OCCO)c1cc(C(=O)OC)ccc1OC: No
2) CC(C)C(O)C1C=CC2C(=O)NC(=O)C2N1Nc1ccccn1 (centres undefined): No
3) CC(C)=C1C(=O)C(c2ccccc2)=C2CN3C(=O)N(CCc4ccccc4)C(=O)[C@]3(C)[C@H]21: Yes

Test whether the compound CC1CC/C=C\[C@H]2OC34C=CCN(Cn5nnc6ccccc65)C(=O)[C@H]3N(CCCCCCO)C(=O)[C@@H]4C2C(=O)O1 (some centres undefined) records z-score of 0 or higher.
No

---

system: glycogen synthase kinase-3 (GSK3A per assay name; protocol says GSK3B); test: compounds binding glycogen synthase kinase-3 – biochemical, small-molecule microarray, 635 nm fluorescence, GSK3A, primary screen (AID 1103); details: fluorescence 635 nm, higher = more signal; note: the record names both GSK3A and GSK3B
measured_quantity: composite z-score
Kindly provide the number alone.

Below are worked cases with known answers.
1) O=C1NC(=O)C2C1C=CC(C(O)c1ccc([N+](=O)[O-])cc1)N2Nc1ccccn1 (stereo not given): -0.34
2) COC(=O)[C@@]1(Cc2ccc(F)cc2)[C@H]2c3cc(C(=O)N4CCCC4)n(Cc4ccccn4)c3C[C@H]2CN1C(=O)c1ccccc1: 0.453
3) CC(C)(C)N1CC=CC23O[C@@H]4/C=C\CCCOC(=O)C4[C@H]2C(=O)N(CCCO)[C@@H]3C1=O (stereo not given in full): -0.416
4) O=C(N1CCOCC1)[C@@]1(Cc2ccccc2)COC(c2ccc(OCCCO)cc2)=N1: 0.983
5) C[C@]1(C(=O)O)c2ccccc2C(=O)N(Cc2cc(F)cc(C(F)(F)F)c2)[C@H]1c1ccc(CO)cc1: -0.429
6) CCN(CC)c1ccc(N2CC=CC34O[C@@H]5C=CCCOC(=O)C5[C@H]3C(=O)N(C(C)CO)[C@@H]4C2=O)cc1 (stereo not given in full): 0.519
7) C=CCC(OC(C)=O)[C@@H]1[C@@H](N(Cc2cc3ccccc3o2)C(=O)c2cccc3ccccc23)c2cc(OCCCO)ccc2N1C(=O)c1ccc2ccccc2n1 (stereo not given in full): 0.0025
8) COc1ccc([Si](C)(C)[C@H]2[C@H](CC(=O)N3Cc4ccccc4C[C@H]3CO)O[C@@]3(C(=O)N(C)c4c(Br)cc(C)cc43)[C@@H]2C)cc1: 0.332

# composite z-score lookup, item "CCOC(=O)C1=CC[C@@H](c2ccc(OC)cc2)N(S(=O)(=O)c2ccc(C)cc2)[C@H]1c1ccc(C)cc1"
1.07

# composite z-score lookup, item "CO[C@H]1O[C@H](CO)[C@@H](OC(=O)Nc2ccccc2)[C@H](OC(=O)Nc2ccccc2)[C@H]1OC(=O)Nc1ccccc1"
1.25

# composite z-score lookup, item "CC(C)c1nc2cc(Br)ccc2c(=O)o1"
1.02

# composite z-score lookup, item CN1C(=O)C2C(C3CC3)C=C3CN(Cc4cccc(Cl)c4)[C@@H]([C@@H](O)Cc4ccccc4)C3C2C1=O (stereo not given in full)
1.13

# composite z-score lookup, item "COC(=O)[C@@]1(Cc2ccc(F)cc2)[C@H]2c3cc(C(=O)N(C)C)n(CCc4ccc(O)c(O)c4)c3C[C@H]2CN1C(=O)c1ccccc1"
-0.292

# composite z-score lookup, item "COc1ccc([Si](C)(C)[C@@H]2[C@@H](CC(=O)N3Cc4ccccc4C[C@H]3CO)O[C@]3(C(=O)N(Cc4ccc(N5CCOC5=O)cc4)c4ccccc43)[C@H]2C)cc1"
0.969

# composite z-score lookup, item "COCCCN1C(=O)[C@@]2(c3ccc([N+](=O)[O-])cc3)CC(=O)N(CC34CC5CC(CC(C5)C3)C4)[C@@H]2c2ccc(CO)cc21"
0.541
